Test system: 786-0 renal
Test: NCI-60 one-dose screen, 48 h
Details: 10 µM unless noted
Compounds without any hit were thinned out: in the full panel of roughly 83,000, 20% have a hit. The source made the active and inactive calls. Rule for the calls: active = growth percent below 10; inactive = the rest.
// classify into active, inactive

Q: Assay outcome for Cn1cc(-c2noc(-c3cn(C)c4ncc(Br)cc34)n2)c2cc(Cl)ccc21 : what was it?
Ans: inactive

Q: Assay outcome for COC(=O)c1cc(O)c2c(c1C(=O)OC)C[C@H]1[C@@H]3CC=C4C[C@@H](O)CC[C@]4(C)[C@H]3CC[C@]21C : what was it?
Ans: active

Q: Assay outcome for CC1(C)CC[C@]2(C(=O)O)CC[C@]3(C)C(=CC[C@@H]4[C@@]5(C)C/C(=C/c6ccco6)C(=O)C(C)(C)[C@@H]5CC[C@]43C)[C@@H]2C1 : what was it?
Ans: active

Q: Assay outcome for Nc1cccc2c1C(=O)c1cccc(NC(=O)c3ccccc3)c1C2=O : what was it?
Ans: inactive

Q: Assay outcome for O=C(NCCCCCCCNC(=O)OCc1ccc2c(Cl)cc(Cl)c(O)c2n1)OCc1ccc2c(Cl)cc(Cl)c(O)c2n1 : what was it?
Ans: active

Q: Assay outcome for O=C(NNc1ccc(-c2ccccc2)nn1)c1ccccc1 : what was it?
Ans: inactive

Q: Assay outcome for N#CCCc1c[nH]c2ccccc12 : what was it?
Ans: inactive

Q: Assay outcome for CN(C)CCCNc1nc(-c2cccc(C(Cl)(Cl)Cl)c2)nc(C(Cl)(Cl)Cl)n1 : what was it?
Ans: inactive

Q: Assay outcome for C1=C[C@H]2O[C@@H]1c1ccc3[nH]ccc3c12 : what was it?
Ans: inactive

Q: Assay outcome for CCCC[C@@H](C=O)NC(=O)[C@H](CC(C)C)NC(=O)[C@H](CC(C)C)NC(=O)OCc1ccccc1 : what was it?
Ans: active

Q: Assay outcome for Nc1nc(N)c2c(n1)NC(c1ccc(F)cc1)C1CCc3ccccc3C1=N2 (centres undefined) : what was it?
Ans: inactive

Q: Assay outcome for Cc1ccc(NC(=O)N[C@@H](Cc2cc(F)cc(F)c2)C(=O)N[C@@H]2C(=O)N3CCC[C@H]3C(=O)N3CCCC[C@H]3C(=O)N[C@@H](C)C(=O)N3C[C@H](C)C[C@H]3C(=O)O[C@H]2C)cc1 : what was it?
Ans: inactive

Q: Assay outcome for O=c1[nH]c(CN2CCN(c3cccc(Cl)c3)CC2)nc2cc(Cl)ccc12 : what was it?
Ans: inactive

Q: Assay outcome for CC(C)OC(=O)Nc1cc(F)ccc1F : what was it?
Ans: inactive

Q: Assay outcome for CCN(CC)CCCCCCNc1cccc2cc(Br)cnc12 : what was it?
Ans: inactive

Q: Assay outcome for CCOC(=O)c1c[nH]c2cc(OCC3CC3)c(OCC3CC3)cc2c1=O : what was it?
Ans: inactive

Q: Assay outcome for CCCCCCCCN(CCCCCCCC)CC(O)c1ccc(Cl)c(C)c1Cl (centres undefined) : what was it?
Ans: inactive

Q: Assay outcome for Nc1cc(NN=C(c2ccc(O)cc2)c2ccc(O)cc2)c([N+](=O)[O-])cc1[N+](=O)[O-] : what was it?
Ans: active

Q: Assay outcome for CSc1nc(=S)c2nc(SC)n(-c3ccccc3)c2[nH]1 : what was it?
Ans: inactive

---

Tested on: ACHN renal
Assay: NCI-60 one-dose screen, 48 h
Details: 10 µM unless noted
About 83,000 compounds went through this panel and 20% of them were active in at least one assay; those are over-represented in the sample as a whole. Activity calls are given as the source filed them. How the source made its calls: active means growth percent below 10; inactive means the rest.
// classify into True = active, False = inactive

Q: Assay outcome for CN(C)C(=S)Sc1ccc([N+](=O)[O-])cc1[N+](=O)[O-] : what was it?
Ans: True

Q: Assay outcome for CCCCC(CC)COC(=O)C[N+](C)(C)CCOC(c1ccccc1)c1ccccc1 (centres undefined) : what was it?
Ans: False

Q: Assay outcome for Cc1ccc(-n2nc3n(/c2=N\C(=O)NS(=O)(=O)c2ccc(C)cc2)CCN3C2=NCCN2)cc1 : what was it?
Ans: False

Q: Assay outcome for NS(=O)(=O)c1ccc(CCN2C(=O)/C(=C\c3ccccc3)C=C2c2ccc(Cl)cc2)cc1 : what was it?
Ans: False

Q: Assay outcome for CCOc1cc(/C=N\NC(=O)N/N=C/c2ccc(O)c(OCC)c2)ccc1O : what was it?
Ans: False

Q: Assay outcome for COC(=O)c1c(C)[nH]c(/C=C2\N=C(c3ccc[nH]3)C=C2OC)c1C : what was it?
Ans: True

Q: Assay outcome for COC(=O)[C@]12CCC(C)(C)C[C@H]1C1=CC[C@@H]3[C@@]4(C)C/C(=C/c5cccnc5)C(=O)C(C)(C)[C@@H]4CC[C@@]3(C)[C@]1(C)CC2 : what was it?
Ans: True

Q: Assay outcome for COc1ccc(C(=O)/C=C/c2ccccn2)c(O)c1 : what was it?
Ans: False

Q: Assay outcome for CCCN1CC(c2ccc(OC)c(OC)c2)=C(c2cn(C(=O)OCC)c3ccccc23)C1=O : what was it?
Ans: False
